Molecular target: CXCR4 (Homo sapiens, UniProt P61073)
Construct: endogenous in cells; host or cells: Jurkat T-cell leukemia cells
Sequence (P61073 whole entry): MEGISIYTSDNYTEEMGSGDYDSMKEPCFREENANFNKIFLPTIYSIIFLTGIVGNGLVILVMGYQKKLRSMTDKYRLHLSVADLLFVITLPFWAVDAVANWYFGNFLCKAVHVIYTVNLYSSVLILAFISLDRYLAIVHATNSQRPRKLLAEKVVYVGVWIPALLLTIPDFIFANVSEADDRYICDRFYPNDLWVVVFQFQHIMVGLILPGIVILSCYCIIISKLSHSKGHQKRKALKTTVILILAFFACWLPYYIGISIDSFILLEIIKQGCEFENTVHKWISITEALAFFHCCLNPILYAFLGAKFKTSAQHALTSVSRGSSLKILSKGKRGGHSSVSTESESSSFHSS
Assay: competitive binding assay on Jurkat cells with [125I]FC131 as radioligand
Conditions: Jurkat T-cells, 4 × 10^5 cells per vial, app. 0.1 nM [125I]FC131, 120 min incubation, mean ± SD (n = 3)
pIC50: −log10 of the molar value. Where a SMILES comes first, the peptide text is derived from it. Side-chain parts run from the residue outwards. [ ]: non-standard residue; d: D form. The star is where a group is joined. DOTAGA = O=C(O)CN1CCN(CC(=O)O)CCN(C(CCC(=O)*)C(=O)O)CCN(CC(=O)O)CC1; NODAGA = O=C(O)CN1CCN(CC(=O)O)CCN(C(CCC(=O)*)C(=O)O)CC1; NOTA = O=C(O)CN1CCN(CC(=O)O)CCN(CC(=O)*)CC1; 2Nal = N[C@@H](Cc1ccc2ccccc2c1)C(=O)O; dNMeOrn = CN[C@H](CCCN)C(=O)O; 4Amb = NCc1ccc(C(=O)O)cc1
Rule: pIC50 under 7 gives false (0), otherwise true (1).

Study these solved cases before continuing.
{"columns": ["compound", "answer-label"],
 "data": [
  ["CN1C(=O)[C@@H](Cc2ccc(O)cc2)NC(=O)CNC(=O)[C@H](Cc2ccc3ccccc3c2)NC(=O)[C@H](CCCNC(=N)N)NC(=O)[C@H]1CCCNC(=O)c1ccc(CNC(=O)CN2CCN(CC(=O)O)CCN(CC(=O)O)CC2)cc1 [[^natF]AlF-3] (cyclo([2Nal]G[dY][dNMeOrn]([4Amb-NOTA])R))", "false (0)"],
  ["CN1C(=O)[C@@H](Cc2ccc(O)cc2)NC(=O)CNC(=O)[C@H](Cc2ccc3ccccc3c2)NC(=O)[C@H](CCCNC(=N)N)NC(=O)[C@H]1CCCNC(=O)c1ccc(CNC(=O)CCC(C(=O)O)N2CCN(CC(=O)O)CCN(CC(=O)O)CC2)cc1 (some centres unmarked) [[^natCu^2+]4] [metal not drawn] (cyclo([2Nal]G[dY][dNMeOrn]([4Amb-NODAGA])R))", "false (0)"],
  ["CN1C(=O)[C@@H](Cc2ccc(O)cc2)NC(=O)CNC(=O)[C@H](Cc2ccc3ccccc3c2)NC(=O)[C@H](CCCNC(=N)N)NC(=O)[C@H]1CCCNC(=O)c1ccc(CNC(=O)CN2CCN(CC(=O)O)CCN(CC(=O)O)CC2)cc1 [[^natCu^2+]3] [metal not drawn] (cyclo([2Nal]G[dY][dNMeOrn]([4Amb-NOTA])R))", "true (1)"]
]}

Could you tell me if the measured pIC50 of CN1C(=O)[C@@H](Cc2ccc(O)cc2)NC(=O)CNC(=O)[C@H](Cc2ccc3ccccc3c2)NC(=O)[C@H](CCCNC(=N)N)NC(=O)[C@H]1CCCNC(=O)c1ccc(CNC(=O)CCC(C(=O)O)N2CCN(CC(=O)O)CCN(CC(=O)O)CC2)cc1 (some centres unmarked) [[^natGa^3+]4] [metal not drawn] (cyclo([2Nal]G[dY][dNMeOrn]([4Amb-NODAGA])R)) reaches 7 or more? false (0)

Could you tell me if the measured pIC50 of CN1C(=O)[C@@H](Cc2ccc(O)cc2)NC(=O)CNC(=O)[C@H](Cc2ccc3ccccc3c2)NC(=O)[C@H](CCCNC(=N)N)NC(=O)[C@H]1CCCNC(=O)c1ccc(CNC(=O)CCC(C(=O)O)N2CCN(CC(=O)O)CCN(CC(=O)O)CCN(CC(=O)O)CC2)cc1 (some centres unmarked) [[^natBi^3+]2] [metal not drawn] (cyclo([2Nal]G[dY][dNMeOrn]([4Amb-DOTAGA])R)) reaches 7 or more? true (1)
